Observable: melting point

Known results for compounds:
COc1ccc2nc(CN3CC(C)c4ccccc43)[nH]c(=O)c2c1 (centres unmarked) : 192 to 213 °C
COc1ccc2nc(CN3CCc4c(cccc4C(F)(F)F)C3)[nH]c(=O)c2c1 : 196 to 206 °C
O=c1[nH]c(CN2CCc3ccccc32)nc2ccc(F)cc12 : 184 to 196 °C
COc1ccc2nc(CN3CCCc4cccc(OC)c43)[nH]c(=O)c2c1 : 169 to 183 °C
CC1(C)CN(Cc2nc3cc4c(cc3c(=O)[nH]2)OCO4)c2ccccc21 : 199 to 221 °C

Parameter requested: melting point. Apply to each item below.
1. COc1ccc2nc(CN3CCc4ccc(F)cc43)[nH]c(=O)c2c1
2. COc1ccc2nc(CN3CCc4c(cccc4OC)C3)[nH]c(=O)c2c1
3. COc1ccc2nc(CN3CC(C(C)C)c4ccccc43)[nH]c(=O)c2c1 (centres unmarked)
4. COc1cc2c(=O)[nH]c(CN3CC(C)(C)c4ccccc43)nc2cn1
5. COc1ccc2nc(CN3CCc4cccc(F)c43)[nH]c(=O)c2c1
6. COc1ccc2nc(CN3CC(CO)c4ccccc43)[nH]c(=O)c2c1 (centres unmarked)

["229 to 235 °C", "204 to 218 °C", "192 to 208 °C", "145 to 167 °C", "208 to 227 °C", "190 to 209 °C"]

Values were extracted from patent US20230150978A1.
